# measurement_notes: clinical
# test_parameters: male, human, in vivo, po, in vivo mean half-life
observable: half-life

half-life for CC(C)(C)NC(=O)[C@H]1CC[C@H]2[C@@H]3CC[C@H]4NC(=O)C=C[C@]4(C)[C@H]3CC[C@]12C [Finasteride] ?
~6.4 h

* * *

# measurement_notes: clinical
# test_parameters: male, human, in vivo, po, 1 mg, mean elimination half-life (t1/2el)
observable: half-life (h)
One number for each entry, in h.

Name the recorded half-life for CC(C)(C)NC(=O)[C@H]1CC[C@H]2[C@@H]3CC[C@H]4NC(=O)C=C[C@]4(C)[C@H]3CC[C@]12C [Finasteride] .
6.4

Reference source for all entries: patent US20250213594A1
